Recorded measurements of inhibition, one per entry
TESTED SYSTEM: G/T mismatch-specific thymine DNA glycosylase (Homo sapiens) (UniProt Q13569)
Sequence (Q13569 whole entry): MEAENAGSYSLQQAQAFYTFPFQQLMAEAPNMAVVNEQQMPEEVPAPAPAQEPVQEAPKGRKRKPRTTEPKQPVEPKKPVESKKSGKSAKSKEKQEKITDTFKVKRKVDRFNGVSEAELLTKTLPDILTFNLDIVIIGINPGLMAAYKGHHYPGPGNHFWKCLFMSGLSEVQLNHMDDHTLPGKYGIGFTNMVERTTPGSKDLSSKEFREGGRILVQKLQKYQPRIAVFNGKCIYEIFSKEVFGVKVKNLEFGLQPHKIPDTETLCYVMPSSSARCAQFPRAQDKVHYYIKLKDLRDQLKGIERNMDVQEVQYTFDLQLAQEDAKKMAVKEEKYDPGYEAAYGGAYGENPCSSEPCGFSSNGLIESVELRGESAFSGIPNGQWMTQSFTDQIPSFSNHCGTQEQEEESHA
CONDITION INFO: Compound Concentration 1.0 uM, Hit No
PROPERTY MEASURED: inhibition (%)

C[C@@H](Oc1cc(-n2cnc3ccc(CN4CCN(C)CC4)cc32)sc1C(N)=O)c1ccccc1C(F)(F)F	50
COc1cc(N[C@@H]2CCCC[C@]2(O)C(F)(F)F)ccc1F	50.9
Cn1cc(Cl)c2c(Oc3c(F)cc(Nc4cc(Cl)nc(N)n4)cc3F)ccnc21	48.5

###

TESTED SYSTEM: Single-strand selective monofunctional uracil DNA glycosylase (Homo sapiens)
CONDITION INFO: Compound Concentration 10.0 uM, Hit No
inhibition values, listed per item
PROPERTY MEASURED: inhibition (%)

COc1cc(F)ccc1-c1ncnc(Nc2cccc(C[S@](C)(=N)=O)c2)n1	21.4
COC(=O)N1CCN(C(=O)Cc2ccc(Cl)c(Cl)c2)C(CN2CCCC2)C1 (centres undefined)	-9.51
C=CCN1C[C@H](C(=O)N(CCCN(C)C)C(=O)NCC)C[C@@H]2c3cccc4[nH]cc(c34)C[C@H]21	-9.96
Cc1nnn(-c2ccc(-c3ccc(C4(C(=O)O)CC4)cc3)cc2)c1NC(=O)O[C@H](C)c1ccccc1	4.91

###

TESTED SYSTEM: UniProt Q9UIF7
Sequence (whole entry): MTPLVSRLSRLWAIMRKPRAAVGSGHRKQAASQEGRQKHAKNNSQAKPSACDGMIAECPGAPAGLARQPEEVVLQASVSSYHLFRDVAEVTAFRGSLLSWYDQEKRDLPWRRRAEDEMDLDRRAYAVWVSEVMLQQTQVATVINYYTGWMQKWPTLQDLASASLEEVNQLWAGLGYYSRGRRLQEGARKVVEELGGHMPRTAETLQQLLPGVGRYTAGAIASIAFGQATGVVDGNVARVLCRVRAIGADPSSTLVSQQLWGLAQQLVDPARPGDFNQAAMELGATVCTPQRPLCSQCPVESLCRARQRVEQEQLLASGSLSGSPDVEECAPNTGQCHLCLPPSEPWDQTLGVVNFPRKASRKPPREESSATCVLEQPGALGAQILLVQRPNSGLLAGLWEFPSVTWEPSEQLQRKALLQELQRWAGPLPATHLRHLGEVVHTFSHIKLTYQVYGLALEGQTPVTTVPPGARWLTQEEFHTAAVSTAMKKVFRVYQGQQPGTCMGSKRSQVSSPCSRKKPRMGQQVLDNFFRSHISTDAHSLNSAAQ
CONDITION INFO: Compound Concentration 10.0 uM, Hit No
Where a SMILES comes first, the peptide text is derived from it.
PROPERTY MEASURED: inhibition (%)

CC[C@H](C(=O)Nc1ccccc1N1CCCC1)c1ccccc1	20.6
CCOc1nc2cccc(C(=O)O)c2n1Cc1ccc(-c2ccccc2-c2nnn[nH]2)cc1	2.84
C=C(C)[C@H]1CN[C@H](C(=O)O)[C@H]1CC(=O)O	8.87
FC(F)(F)c1ccc(Nc2ncnc3cc(-c4ncccc4C(F)(F)F)ccc23)cc1	26.4
CCCn1c(=O)c2[nH]c(-c3cnn(Cc4cccc(C(F)(F)F)c4)c3)nc2n(CC)c1=O	-1.26
O=C1CCc2cc(Nc3cc(OC4CCOCC4)c([N+](=O)[O-])cc3Cl)ccc2N1	12.7
CCCN(CCc1cccs1)[C@H]1CCc2c(O)cccc2C1	14.9
C[C@]1(O)C[C@@H](c2nc(-c3ccc4ccc(-c5ccccc5)nc4c3)c3c(N)nccn32)C1	25.7
COc1ccccc1C(=O)Nc1cccc(NC(=O)c2cccc(C)c2)c1	8.28
CC(C)C[C@@H]1NC(=O)[C@@H](C(C)C)NC(=O)[C@@H]2CCCN2C(=O)[C@@H](CC(=O)O)NC(=O)[C@@H](Cc2c[nH]c3ccccc23)NC1=O (HELM PEPTIDE1{L.[dW].[dD].P.[dV]}$PEPTIDE1,PEPTIDE1,1:R1-5:R2$$$V2.0)	6.29
O=C1CC[C@@]2(O)[C@H]3Cc4ccc(O)c5c4[C@@]2(CCN3CC2CC2)[C@H]1O5	14.6
O=C1NCN(c2ccccc2)C12CCN(CCCOc1ccc(F)cc1)CC2	-5.23
Nc1nc(NCCc2ccc(O)cc2)nc2nc(-c3ccco3)nn12	18.6
Nc1nc(Nc2ccccc2)nc2c1ncn2[C@@H]1O[C@H](CO)[C@@H](O)[C@H]1O	-1.27
CSc1ccc(C(=O)N[C@@H]2CCCC[C@@H]2NC(=O)CNC(=O)c2cc(C(F)(F)F)ccc2NC(=O)NC(C)C)cc1	2.07
N=C(N)NCCC[C@H](NC(=O)COCC(c1ccccc1)c1ccccc1)C(=O)O	3.99
NCCc1cccs1	-1.84

###

TESTED SYSTEM: G/T mismatch-specific thymine DNA glycosylase (Homo sapiens) (UniProt Q13569);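 also: human TDG cleavage of quenched duplex DNA oligonucleotides coupled to APE1, strand release read as fluorescence at 594 nm, inhibition of TDG activity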
CONDITION INFO: Compound Concentration 10.0 uM, Hit No
Recorded inhibition determines the label; the label ranges are L: < 10%; M: ≥ 10% and < 50%; H: ≥ 50%

CC1(C)CCC(C)(C)c2cc(NC(=O)c3ccc(C(=O)O)cc3)ccc21	M
Cn1c(=O)n(CCCO)c(=O)c2c1nc(Oc1cccc(Cl)c1)n2Cc1ccc(Cl)cc1	L
CNc1nc(-c2ccc3c(N)n[nH]c3c2)cc(N2C[C@@H](C(=O)NC3CCCCC3)CC[C@H]2C)n1	H
CC(=O)Nc1nc(C)c(S(=O)(=O)Nc2ccc(C(O)(C(F)(F)F)C(F)(F)F)cc2)s1	H
CC1(C)CC(=O)c2c(SCCO)sc(-c3nccs3)c2C1	M
C[C@H](c1ccc(F)cc1)N(Cc1ccc(Cl)c(C(=O)O)c1)C(=O)c1cnc2ccccc2c1	M
Cn1cc(-n2cnc3c(NCc4nc5cc(Cl)c(Cl)cc5[nH]4)nc(N4CCOCC4)nc32)cn1	M
c1ccc(NCc2ccc(CNc3ccccn3)cc2)nc1	M
CCCN(CCc1cccs1)[C@H]1CCc2c(O)cccc2C1	L
O=c1cccc2n1C[C@@H]1CNC[C@H]2C1	L
C[C@@H](O[C@H]1OCCN(Cc2n[nH]c(=O)[nH]2)[C@H]1c1ccc(F)cc1)c1cc(C(F)(F)F)cc(C(F)(F)F)c1	L

###

TESTED SYSTEM: Single-strand selective monofunctional uracil DNA glycosylase (Homo sapiens) (UniProt Q53HV7);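 also: enzymatic SMUG1 assay coupled with APE1, reading fluorescence at 594 nm released when a quenched double-stranded DNA oligonucleotide substrate is cleaved and separated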
Sequence (Q53HV7 whole entry): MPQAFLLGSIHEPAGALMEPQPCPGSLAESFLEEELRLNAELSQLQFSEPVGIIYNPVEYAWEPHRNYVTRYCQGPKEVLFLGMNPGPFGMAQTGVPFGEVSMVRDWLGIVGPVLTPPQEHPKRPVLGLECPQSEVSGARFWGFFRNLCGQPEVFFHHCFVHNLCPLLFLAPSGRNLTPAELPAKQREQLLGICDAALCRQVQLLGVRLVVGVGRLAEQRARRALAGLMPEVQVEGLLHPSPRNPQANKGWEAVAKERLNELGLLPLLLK
CONDITION INFO: Compound Concentration 10.0 uM, Hit No
PROPERTY MEASURED: inhibition (%)

CN(C)CCCc1cc(C(=O)Nc2ccc(-c3ccncc3)cc2)ccc1O	1.23
Cc1onc(-c2ccccc2Cl)c1C(=O)N(C)c1ccc(Cl)cc1	3.65
N[C@](CC1c2ccccc2Oc2ccccc21)(C(=O)O)[C@H]1C[C@@H]1C(=O)O	-0.127
CCc1ccccc1C(=O)Nc1n[nH]c2c(C)c(F)c(C3C(C#N)=C(C)N(C)C(C)=C3C#N)cc12	29.9
CC(C)c1onc(-c2c(Cl)cccc2Cl)c1COc1ccc(/C=C/c2cccc(C(=O)O)c2)c(Cl)c1	19.5
COc1cccc([C@H](O)C2CCN(CCc3ccc(F)cc3)CC2)c1OC	4.47
O=C(O)Cc1cc(I)c(Oc2ccc(O)c(I)c2)c(I)c1	30.4
CC(C)NC(=O)c1ccc(C#Cc2ccncc2)cn1	2.68
COc1ccccc1N1CCN(C[C@@H](C(=O)NC(C)(C)C)c2ccccc2)CC1	7.78
CSc1cccnc1N1CCN(Cc2nc3ccccc3[nH]2)CC1	6.69

###

Listing of entries alongside the reported inhibition.
TESTED SYSTEM: DNA-3-methyladenine glycosylase (Homo sapiens);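 also: enzyme assay where MPG cuts a quenched duplex DNA oligonucleotide probe, paired with APE1 for strand incision and turnover, read as fluorescence at 594 nm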
CONDITION INFO: Compound Concentration 10.0 uM, Hit No
PROPERTY MEASURED: inhibition (%)

O=C(O)c1n[nH]c2c1C[C@H]1C[C@@H]21	-4.72
Cc1onc(-c2ccccc2Cl)c1C(=O)N(C)c1ccc(Cl)cc1	-3.37
Cc1onc(-c2ccc(F)cc2)c1COc1ccc(C(=O)N2CCS(=O)(=O)CC2)cn1	18.2
Nc1nc(-c2ccco2)c2cnn(Cc3ccccc3F)c2n1	-1.21
CN1CC[C@@]23CCCC[C@@H]2[C@@H]1Cc1ccc(O)cc13	-0.416
CSc1nc(NC2CCCC2)c([N+](=O)[O-])c(NC2CCCC2)n1	-2.56
O=C(N[C@H]1CN2CCC1CC2)c1ccc(Cl)cc1	-7.18
Cc1cc(Cn2cnc3c2C[C@@H](C(=O)O)N(C(=O)C(c2ccccc2)c2ccccc2)C3)ccc1N(C)C	19.4
NC(=O)c1ccc(CNC(=O)NC[C@H]2CN(Cc3ccc(Cl)c(Cl)c3)CCO2)cc1	-0.36
CCCCN(CC)c1nc(C)nc2c1c(C)cn2-c1c(C)cc(C)cc1C	6
CC(C)C[C@@H](NC(=O)[C@H](Cc1ccccc1)NC(=O)CNC(=O)[C@@H](C)NC(=O)[C@@H](N)Cc1ccc(O)cc1)C(=O)O	-5.23
CC(C)NCC(O)c1ccc(N)c(C#N)c1 (stereo not given)	0.373
CCCCc1nc(Cl)c(CO)n1Cc1ccc(-c2ccccc2-c2nnn[nH]2)cc1	-2.79
CO[C@H]1CC[C@@H](C(=O)c2ccc3nc4c(cc3c2)CCCO4)CC1	-2.23
C[C@]1(C(=O)N(CCCC(=O)O)Cc2cccc(Cl)c2)CCN1C(=O)c1csc2ccccc12	-1.32
